Let's look at some compounds and their measured Ki or IC50 activity class.
molecular target: human H4 receptor (Homo sapiens, UniProt Q9H3N8); construct: expressed in transfected cells; assay: [3H]Histamine binding on membranes of CHO cells stably expressing human H4 receptor
Sequence (Q9H3N8 whole entry): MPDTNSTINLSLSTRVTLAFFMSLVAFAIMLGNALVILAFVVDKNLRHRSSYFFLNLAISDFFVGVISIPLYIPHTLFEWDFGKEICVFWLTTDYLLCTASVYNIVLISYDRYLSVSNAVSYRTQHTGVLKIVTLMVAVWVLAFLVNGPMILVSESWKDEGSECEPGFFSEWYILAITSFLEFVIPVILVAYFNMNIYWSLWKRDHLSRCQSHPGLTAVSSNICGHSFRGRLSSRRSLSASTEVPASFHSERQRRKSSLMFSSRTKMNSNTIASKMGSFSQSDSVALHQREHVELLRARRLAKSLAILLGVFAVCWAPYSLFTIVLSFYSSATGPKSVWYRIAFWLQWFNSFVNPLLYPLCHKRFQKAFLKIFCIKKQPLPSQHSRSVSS
Measure name: Ki or IC50 activity class

CC(O)CSc1cccc(C(OC2CCN(C)CC2)c2nc3ccccc3[nH]2)c1 (stereo not drawn) [Example 247]
< 300 nM
Cc1ccc(C(OC2CCN(C)CC2)c2nc3ccccc3[nH]2)c(Cl)c1 (stereo not drawn) [Example 213]
< 300 nM
CN1CCC(OC(c2cccc(C#CCO)c2)c2nc3ccccc3s2)CC1 (stereo not drawn) [Example 227]
< 30 nM

Just for reference, patent US8802664B2 is where these values come from.
